Provenance of the data: patent US20100069341A1

# TARGET OR SYSTEM: Cannabinoid CB1 Receptor (Homo sapiens)
# Construct: expressed in transfected cells; semi-purified membrane pellet
# Sequence (P21554 whole entry): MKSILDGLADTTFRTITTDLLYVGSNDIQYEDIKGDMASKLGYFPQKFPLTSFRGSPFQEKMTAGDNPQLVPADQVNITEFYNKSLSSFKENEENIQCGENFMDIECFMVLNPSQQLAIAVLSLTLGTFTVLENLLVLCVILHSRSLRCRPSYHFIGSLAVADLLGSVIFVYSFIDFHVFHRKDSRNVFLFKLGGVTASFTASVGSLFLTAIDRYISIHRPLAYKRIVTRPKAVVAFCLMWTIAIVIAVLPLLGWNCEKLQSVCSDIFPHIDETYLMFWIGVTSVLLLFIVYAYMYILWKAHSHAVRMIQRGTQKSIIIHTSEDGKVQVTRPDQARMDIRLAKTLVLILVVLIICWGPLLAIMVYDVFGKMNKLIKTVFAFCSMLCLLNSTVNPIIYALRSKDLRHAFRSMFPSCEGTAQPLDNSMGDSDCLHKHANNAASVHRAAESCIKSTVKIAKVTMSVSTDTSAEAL
# RUN DESCRIPTION: Binding assay, cannabinoid CB1 receptor ([3H]-CP-55,940 displacement, SK-N-MC cell membranes)
Hi! Could you tag entries with IC50 below 0.03 µM as 1, and those at or above as -1? Much appreciated.

{"MOLECULE": "C[C@@H](NC(=O)c1nn(-c2ccc(Cl)cc2Cl)c2c1COC/C2=C\\c1ccc(Cl)s1)C1CCCCC1", "LABEL": 1}
{"MOLECULE": "O=C(NN1CCCCCC1)c1nn(-c2ccc(Cl)cc2Cl)c2c1COC/C2=C\\c1ccsc1", "LABEL": 1}
{"MOLECULE": "O=C(NN1CC2CCCC2C1)c1nn(-c2ccc(Cl)cc2Cl)c2c1COC/C2=C\\c1ccc(Cl)s1 (stereo not shown)", "LABEL": -1}
{"MOLECULE": "CC1CCCC(C)N1NC(=O)c1nn(-c2ccc(Cl)cc2Cl)c2c1COC/C2=C\\c1ccc(F)cc1 (stereo not shown)", "LABEL": -1}
{"MOLECULE": "C[C@@H](NC(=O)c1nn(-c2ccc(Cl)cc2)c2c1COC/C2=C\\c1ccc(F)cc1)c1ccccc1", "LABEL": -1}
{"MOLECULE": "O=C(NN1CCCCCC1)c1nn(-c2ccc(Cl)cc2Cl)c2c1COC/C2=C\\c1ccc(Cl)s1", "LABEL": 1}
{"MOLECULE": "O=C(NN1CC2CCCC2C1)c1nn(-c2ccc(Cl)cc2Cl)c2c1COC/C2=C\\c1ccc(Cl)o1 (stereo not shown)", "LABEL": -1}
{"MOLECULE": "C[C@@H](NC(=O)c1nn(-c2ccc(Cl)cc2Cl)c2c1COC/C2=C\\c1ccc(Cl)o1)c1ccccc1", "LABEL": -1}
{"MOLECULE": "C[C@@H](NC(=O)c1nn(-c2ccc(Cl)cc2Cl)c2c1COC/C2=C\\c1ccsc1)C1CCCCC1", "LABEL": 1}
{"MOLECULE": "C[C@@H](NC(=O)c1nn(-c2ccc(Cl)cc2Cl)c2c1COC/C2=C\\c1ccc(Cl)s1)c1ccccn1", "LABEL": -1}
{"MOLECULE": "C[C@@H](NC(=O)c1nn(-c2ccc(Cl)cc2Cl)c2c1COC/C2=C\\c1ccsc1)c1ccccc1", "LABEL": 1}
{"MOLECULE": "C[C@@H](NC(=O)c1nn(-c2ccc(Cl)cc2Cl)c2c1COC/C2=C\\c1ccc(Cl)s1)c1ccccc1", "LABEL": 1}
{"MOLECULE": "C[C@@H](NC(=O)c1nn(-c2ccc(Cl)cc2Cl)c2c1COC/C2=C\\c1cccs1)c1ccccc1", "LABEL": 1}
{"MOLECULE": "O=C(NN1CC2CCCC2C1)c1nn(-c2ccc(Cl)cc2Cl)c2c1COC/C2=C\\c1ccsc1 (stereo not shown)", "LABEL": 1}
{"MOLECULE": "O=C(NN1CCCCCC1)c1nn(-c2ccc(Cl)cc2Cl)c2c1COC/C2=C\\c1ccc(Cl)o1", "LABEL": -1}
{"MOLECULE": "O=C(NN1CC2CCCC2C1)c1nn(-c2ccc(Cl)cc2Cl)c2c1COC/C2=C\\c1ccc(F)cc1 (stereo not shown)", "LABEL": 1}
{"MOLECULE": "C[C@@H](NC(=O)c1nn(-c2ccc(Cl)cc2Cl)c2c1COC/C2=C\\c1cccs1)C1CCCCC1", "LABEL": 1}
{"MOLECULE": "C[C@@H](NC(=O)c1nn(-c2ccc(Cl)cc2)c2c1COC/C2=C\\c1ccc(F)cc1)C1CCCCC1", "LABEL": 1}
{"MOLECULE": "O=C(NN1CCCCC1)c1nn(-c2ccc(Cl)cc2Cl)c2c1COC/C2=C\\c1ccc(F)cc1", "LABEL": -1}
{"MOLECULE": "O=C(NN1CCCCCC1)c1nn(-c2ccc(Cl)cc2Cl)c2c1COC/C2=C\\c1cccs1", "LABEL": 1}
{"MOLECULE": "O=C(NN1CCCCC1)c1nn(-c2ccc(Cl)cc2Cl)c2c1COC/C2=C\\c1ccc(Cl)s1", "LABEL": 1}
{"MOLECULE": "O=C(NN1CC2CCCC2C1)c1nn(-c2ccc(Cl)cc2)c2c1COC/C2=C\\c1ccc(F)cc1 (stereo not shown)", "LABEL": -1}
{"MOLECULE": "C[C@@H](NC(=O)c1nn(-c2ccc(Cl)cc2Cl)c2c1COC/C2=C\\c1ccc(F)cc1)c1ccccc1", "LABEL": 1}

* * *

# TARGET OR SYSTEM: Cannabinoid CB1 Receptor (Homo sapiens)
# Construct: expressed in transfected cells; semi-purified membrane pellet
# RUN DESCRIPTION: Binding assay, cannabinoid CB1 receptor ([3H]-CP-55,940 displacement, SK-N-MC cell membranes)
# ASSAY SETUP: read-out: Cannabinoid CB1 Receptor Binding, percent inhibition

{"CPD SMILES": "C[C@@H](NC(=O)c1nn(-c2ccc(Cl)cc2Cl)c2c1COC/C2=C\\c1ccc(Cl)o1)C1CCCCC1", "RESULT UNIT": "%", "inhibition at 0.2 µM": 74}
{"CPD SMILES": "C[C@H](NC(=O)c1nn(-c2ccc(Cl)cc2Cl)c2c1COC/C2=C\\c1ccsc1)c1ccccc1", "RESULT UNIT": "%", "inhibition at 0.2 µM": 57}
{"CPD SMILES": "C[C@H](NC(=O)c1nn(-c2ccc(Cl)cc2Cl)c2c1COC/C2=C\\c1ccsc1)C1CCCCC1", "RESULT UNIT": "%", "inhibition at 0.2 µM": 56}
{"CPD SMILES": "C[C@H](NC(=O)c1nn(-c2ccc(Cl)cc2Cl)c2c1COC/C2=C\\c1ccc(Cl)o1)C1CCCCC1", "RESULT UNIT": "%", "inhibition at 0.2 µM": 25}
{"CPD SMILES": "C[C@@H](NC(=O)c1nn(-c2ccc(Cl)cc2)c2c1COC/C2=C\\c1ccc(F)cc1)C1CCCCC1", "RESULT UNIT": "%", "inhibition at 0.2 µM": 84}
{"CPD SMILES": "C[C@@H](NC(=O)c1nn(-c2ccc(Cl)cc2Cl)c2c1COC/C2=C\\c1ccsc1)c1ccccc1", "RESULT UNIT": "%", "inhibition at 0.2 µM": 84}
{"CPD SMILES": "C[C@@H](NC(=O)c1nn(-c2ccc(Cl)cc2Cl)c2c1COC/C2=C\\c1ccsc1)C1CCCCC1", "RESULT UNIT": "%", "inhibition at 0.2 µM": 84}

* * *

# TARGET OR SYSTEM: Cannabinoid CB2 Receptor (Homo sapiens, UniProt P34972)
# Construct: expressed in transfected cells; semi-purified membrane pellet
# Sequence (P34972 whole entry): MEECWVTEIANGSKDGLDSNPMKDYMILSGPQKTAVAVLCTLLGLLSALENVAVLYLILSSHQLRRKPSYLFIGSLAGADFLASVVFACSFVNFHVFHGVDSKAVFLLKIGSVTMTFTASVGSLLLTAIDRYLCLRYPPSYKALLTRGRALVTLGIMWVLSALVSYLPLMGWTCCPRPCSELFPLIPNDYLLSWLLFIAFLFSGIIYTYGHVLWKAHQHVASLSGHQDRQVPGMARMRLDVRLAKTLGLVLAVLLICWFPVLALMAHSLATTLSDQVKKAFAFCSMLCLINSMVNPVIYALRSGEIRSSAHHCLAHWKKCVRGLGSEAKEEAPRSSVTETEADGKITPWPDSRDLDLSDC
# RUN DESCRIPTION: Binding assay, cannabinoid CB2 receptor ([3H]-CP-55,940 displacement, SK-N-MC cell membranes)
# ASSAY SETUP: test concentration of 0.2 μM; human CB2 in SK-N-MC membranes; read-out: Cannabinoid CB2 Receptor Binding, percent inhibition
Each entry below lists one item and its recorded inhibition at 0.2 µM value.

{"COMPOUND": "C[C@@H](NC(=O)c1nn(-c2ccc(Cl)cc2Cl)c2c1COC/C2=C\\c1cccs1)c1ccccc1 [Cpd 32]", "TARGET OR SYSTEM": "Cannabinoid CB2 Receptor (Homo sapiens, UniProt P34972)", "inhibition at 0.2 µM (%)": 11}
{"COMPOUND": "CC1CCCC(C)N1NC(=O)c1nn(-c2ccc(Cl)cc2Cl)c2c1COC/C2=C\\c1ccc(Cl)s1 (stereo not shown) [Cpd 55]", "TARGET OR SYSTEM": "Cannabinoid CB2 Receptor (Homo sapiens, UniProt P34972)", "inhibition at 0.2 µM (%)": 11}
{"COMPOUND": "O=C(NN1CC2CCCC2C1)c1nn(-c2ccc(Cl)cc2)c2c1COC/C2=C\\c1ccc(F)cc1 (stereo not shown) [Cpd 15]", "TARGET OR SYSTEM": "Cannabinoid CB2 Receptor (Homo sapiens, UniProt P34972)", "inhibition at 0.2 µM (%)": 18}
{"COMPOUND": "C[C@@H](NC(=O)c1nn(-c2ccc(Cl)cc2Cl)c2c1COC/C2=C\\c1cccs1)C1CCCCC1 [Cpd 33]", "TARGET OR SYSTEM": "Cannabinoid CB2 Receptor (Homo sapiens, UniProt P34972)", "inhibition at 0.2 µM (%)": 15}
{"COMPOUND": "C[C@@H](NC(=O)c1nn(-c2ccc(Cl)cc2Cl)c2c1COC/C2=C\\c1ccc(F)cc1)c1ccccc1 [Cpd 2]", "TARGET OR SYSTEM": "Cannabinoid CB2 Receptor (Homo sapiens, UniProt P34972)", "inhibition at 0.2 µM (%)": 23}
{"COMPOUND": "O=C(NN1CCCCC1)c1nn(-c2ccc(Cl)cc2Cl)c2c1COC/C2=C\\c1ccc(F)cc1 [Cpd 7]", "TARGET OR SYSTEM": "Cannabinoid CB2 Receptor (Homo sapiens, UniProt P34972)", "inhibition at 0.2 µM (%)": 8}
{"COMPOUND": "O=C(NN1CCCCCC1)c1nn(-c2ccc(Cl)cc2Cl)c2c1COC/C2=C\\c1ccc(Cl)o1 [Cpd 65]", "TARGET OR SYSTEM": "Cannabinoid CB2 Receptor (Homo sapiens, UniProt P34972)", "inhibition at 0.2 µM (%)": 9}
{"COMPOUND": "CC(NC(=O)c1nn(-c2ccc(Cl)cc2Cl)c2c1COC/C2=C\\c1ccc(Cl)s1)c1ccccn1 (stereo not shown) [Cpd 60]", "TARGET OR SYSTEM": "Cannabinoid CB2 Receptor (Homo sapiens, UniProt P34972)", "inhibition at 0.2 µM (%)": 7}
{"COMPOUND": "O=C(N[C@H]1c2ccccc2C[C@H]1O)c1nn(-c2ccc(Cl)cc2Cl)c2c1COC/C2=C\\c1ccc(F)cc1 [Cpd 4]", "TARGET OR SYSTEM": "Cannabinoid CB2 Receptor (Homo sapiens, UniProt P34972)", "inhibition at 0.2 µM (%)": 19}
{"COMPOUND": "O=C(NN1CC2CCCC2C1)c1nn(-c2ccc(Cl)cc2Cl)c2c1COCC2Cc1ccc(F)cc1 (stereo not shown) [Cpd 22]", "TARGET OR SYSTEM": "Cannabinoid CB2 Receptor (Homo sapiens, UniProt P34972)", "inhibition at 0.2 µM (%)": 18}
{"COMPOUND": "O=C(NN1CCCCC1)c1nn(-c2ccc(Cl)cc2Cl)c2c1COC/C2=C\\c1ccc(Cl)s1 [Cpd 54]", "TARGET OR SYSTEM": "Cannabinoid CB2 Receptor (Homo sapiens, UniProt P34972)", "inhibition at 0.2 µM (%)": 13}
{"COMPOUND": "CC(NC(=O)c1nn(-c2ccc(Cl)cc2Cl)c2c1COC/C2=C\\c1ccc(Cl)o1)c1ccccn1 (stereo not shown) [Cpd 67]", "TARGET OR SYSTEM": "Cannabinoid CB2 Receptor (Homo sapiens, UniProt P34972)", "inhibition at 0.2 µM (%)": 7}
{"COMPOUND": "O=C(NN1CCCCC1)c1nn(-c2ccc(Cl)cc2Cl)c2c1COCC2Cc1ccc(F)cc1 (stereo not shown) [Cpd 23]", "TARGET OR SYSTEM": "Cannabinoid CB2 Receptor (Homo sapiens, UniProt P34972)", "inhibition at 0.2 µM (%)": 19}
{"COMPOUND": "O=C(c1nn(-c2ccc(Cl)cc2Cl)c2c1COC/C2=C\\c1ccc(F)cc1)N1CCC[C@H]1CO [Cpd 21]", "TARGET OR SYSTEM": "Cannabinoid CB2 Receptor (Homo sapiens, UniProt P34972)", "inhibition at 0.2 µM (%)": 15}
{"COMPOUND": "C[C@@H](NC(=O)c1nn(-c2ccc(Cl)cc2Cl)c2c1COC/C2=C\\c1ccc(Cl)s1)c1ccccn1 [Cpd 61]", "TARGET OR SYSTEM": "Cannabinoid CB2 Receptor (Homo sapiens, UniProt P34972)", "inhibition at 0.2 µM (%)": 9.5}
{"COMPOUND": "COC[C@@H]1CCCN1NC(=O)c1nn(-c2ccc(Cl)cc2Cl)c2c1COC/C2=C\\c1ccc(Cl)s1 [Cpd 73]", "TARGET OR SYSTEM": "Cannabinoid CB2 Receptor (Homo sapiens, UniProt P34972)", "inhibition at 0.2 µM (%)": 11}
